Tgt: Neuraminidase (NA) of A/Taiwan/1/2013(H7N9) NA-WT (Influenza A virus)
Assay type: biochemical
Condition Notes: read-out: IC50, nM ± SD
Value Type: IC50

Field IC50 (entry CCC(CC)[C@H](NC(C)=O)[C@@H]1[C@H](O)[C@@H](C(=O)O)C[C@H]1N=C(N)N [Peramivir, peramivir] ) reads 0.08 nM

----------
Tgt: Neuraminidase (NA) of A/Washington/01/2007, NA-WT (Influenza A virus)
Type: biochemical
Condition Notes: read-out: IC50, nM ± SD
Value Type: IC50
Please state the value followed by its unit.

// IC50 value for CCC(CC)[C@H](NC(C)=O)[C@@H]1[C@H](O)[C@@H](C(=O)O)C[C@H]1N=C(N)N : 0.23 nM

Sourced from paper PMC6943751
